target: human Fc (human); assay: ELISA; negative control
Exercise: for every item that follows, state its recorded optical density.
Answers are plain numbers, in OD.

371_F05 (antibody, V domains shown) VH: EVQLLESGGGLVQPGGSLRLSCAASGFTFSSYSMNWVRQAPGKGLEWVAGINYNSGYKSYADSVKGRFTISRDNSKNTLYLQMNSLRAEDTAVYYCARSATWHDTHLDYWGQGTLVTVSS VL: DIQMTQSPSSLSASVGDRVTITCRASQSILSYLNWYQQKPGKAPKLLIYAATSRHSGVPSRFSGSGSGTDFTLTISSLQPEDFATYYCQQSYENPLTFGGGTKVEIK    0.297

// moving on: another record for optical density
Request the reported optical density associated with 370_H03 (antibody, V domains shown) VH: EVQLLESGGGLVQPGGSLRLSCAASGFTFDSYSMNWVRQAPGKGLEWVAGINYNSGYKGYADSVKGRFTISRDNSKNTLYLQMNSLRAEDTAVYYCARSATWHDTHLDYWGQGTLVTVSS VL: DIQMTQSPSSLSASVGDRVTITCRASQSILTYLNWYQQKPGKAPKLLIYAATSLASGVPSRFSGSGSGTDFTLTISSLQPEDFATYYCQQSYDTPLTFGGGTKVEIK
0.381
